Hey, just so you know, these numbers are from patent US10494378B2.

# MEASUREMENT TARGET: JAK3 kinase (Homo sapiens)
# Construct: purchased Carna 08-046
# Sequence (P52333 whole entry): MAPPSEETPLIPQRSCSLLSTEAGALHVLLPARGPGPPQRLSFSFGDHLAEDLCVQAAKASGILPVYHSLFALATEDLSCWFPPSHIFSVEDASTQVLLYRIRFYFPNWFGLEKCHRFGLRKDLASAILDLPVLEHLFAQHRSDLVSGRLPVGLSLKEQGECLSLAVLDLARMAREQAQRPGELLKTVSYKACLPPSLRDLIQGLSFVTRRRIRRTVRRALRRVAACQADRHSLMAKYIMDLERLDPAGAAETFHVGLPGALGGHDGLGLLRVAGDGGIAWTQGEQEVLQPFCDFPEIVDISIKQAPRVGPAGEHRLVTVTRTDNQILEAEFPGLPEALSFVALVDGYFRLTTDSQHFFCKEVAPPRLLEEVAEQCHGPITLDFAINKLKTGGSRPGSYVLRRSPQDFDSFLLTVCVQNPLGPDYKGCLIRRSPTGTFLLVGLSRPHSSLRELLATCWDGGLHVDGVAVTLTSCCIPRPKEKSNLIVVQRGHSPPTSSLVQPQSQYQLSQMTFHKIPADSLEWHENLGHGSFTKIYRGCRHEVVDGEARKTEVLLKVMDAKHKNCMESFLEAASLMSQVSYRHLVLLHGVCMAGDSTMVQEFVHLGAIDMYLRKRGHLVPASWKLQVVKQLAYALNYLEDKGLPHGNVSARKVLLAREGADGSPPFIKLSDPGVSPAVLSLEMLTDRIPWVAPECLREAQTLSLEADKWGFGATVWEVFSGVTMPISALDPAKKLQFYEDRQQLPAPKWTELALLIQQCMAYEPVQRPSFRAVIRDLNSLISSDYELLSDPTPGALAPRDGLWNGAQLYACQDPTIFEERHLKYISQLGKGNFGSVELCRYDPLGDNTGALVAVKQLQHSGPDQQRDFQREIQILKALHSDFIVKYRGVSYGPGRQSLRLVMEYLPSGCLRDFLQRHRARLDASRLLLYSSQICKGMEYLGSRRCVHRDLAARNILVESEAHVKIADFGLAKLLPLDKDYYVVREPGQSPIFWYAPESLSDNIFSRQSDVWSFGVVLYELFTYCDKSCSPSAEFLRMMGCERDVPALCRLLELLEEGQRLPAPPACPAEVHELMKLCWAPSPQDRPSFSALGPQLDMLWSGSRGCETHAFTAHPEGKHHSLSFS
# ASSAY NAME: IC50 evaluation assay on JAK3 kinase inhibition (Caliper)
# Type: biochemical
# STUDY CONDITIONS: adenosine triphosphate at Km; 1 hour at 28° C.; average of two tests; read-out: IC50 (nM) inhibiting JAK 3 kinase
VALUE TYPE: IC50 (nM)
Answer with a number only, understood to be in nM.

[
  {
    "CPD SMILES": "COc1cc(O[C@H]2CCOC2)ccc1-c1c(C)sc2cnc(Nc3cnn(C)c3)nc12",
    "IC50 [nM]": 2.1
  },
  {
    "CPD SMILES": "CN(c1ccccc1-c1csc2cnc(Nc3cnn(C)c3)nc12)S(C)(=O)=O",
    "IC50 [nM]": 1.3
  },
  {
    "CPD SMILES": "Cc1sc2cnc(Nc3cnn(C4CCNCC4)c3)nc2c1-c1cccc2c1OCC2",
    "IC50 [nM]": 0.42
  },
  {
    "CPD SMILES": "COc1cc(F)ccc1-c1c(C)sc2cnc(Nc3cnn(CCCN4CCCC4)c3)nc12",
    "IC50 [nM]": 1.6
  },
  {
    "CPD SMILES": "COc1cc(OCCCN2CCCC2)ccc1-c1c(C)sc2cnc(Nc3cnn(C)c3)nc12",
    "IC50 [nM]": 4.5
  }
]

Bench note, JAK3 kinase (Homo sapiens): COc1cc(Cl)ccc1-c1c(C)sc2cnc(Nc3cnn(C)c3)nc12 , IC50 reads 1.4

# Cc1sc2cnc(Nc3cnn(C)c3)nc2c1-c1cccc2c1OCO2 with JAK3 kinase (Homo sapiens): IC50 is 5.1

// IC50 (JAK3 kinase (Homo sapiens)) for COc1ccccc1-c1c(C)sc2cnc(Nc3cnn(CCN4CCN(C)CC4)c3)nc12 = 1.5

Item Cc1sc2cnc(Nc3cnn(C)c3)nc2c1-c1cccc2c1OCC2 ; assay system JAK3 kinase (Homo sapiens); IC50 reported as 0.99

Observed IC50 on JAK3 kinase (Homo sapiens), entry Cc1sc2cnc(Nc3cnn(C)c3)nc2c1-c1ccccc1OC(F)F , equals 3.6

====

# MEASUREMENT TARGET: FGFR2 kinase (Homo sapiens, UniProt P21802)
# Construct: purchased Carna 08-134
# Sequence (P21802 22-821): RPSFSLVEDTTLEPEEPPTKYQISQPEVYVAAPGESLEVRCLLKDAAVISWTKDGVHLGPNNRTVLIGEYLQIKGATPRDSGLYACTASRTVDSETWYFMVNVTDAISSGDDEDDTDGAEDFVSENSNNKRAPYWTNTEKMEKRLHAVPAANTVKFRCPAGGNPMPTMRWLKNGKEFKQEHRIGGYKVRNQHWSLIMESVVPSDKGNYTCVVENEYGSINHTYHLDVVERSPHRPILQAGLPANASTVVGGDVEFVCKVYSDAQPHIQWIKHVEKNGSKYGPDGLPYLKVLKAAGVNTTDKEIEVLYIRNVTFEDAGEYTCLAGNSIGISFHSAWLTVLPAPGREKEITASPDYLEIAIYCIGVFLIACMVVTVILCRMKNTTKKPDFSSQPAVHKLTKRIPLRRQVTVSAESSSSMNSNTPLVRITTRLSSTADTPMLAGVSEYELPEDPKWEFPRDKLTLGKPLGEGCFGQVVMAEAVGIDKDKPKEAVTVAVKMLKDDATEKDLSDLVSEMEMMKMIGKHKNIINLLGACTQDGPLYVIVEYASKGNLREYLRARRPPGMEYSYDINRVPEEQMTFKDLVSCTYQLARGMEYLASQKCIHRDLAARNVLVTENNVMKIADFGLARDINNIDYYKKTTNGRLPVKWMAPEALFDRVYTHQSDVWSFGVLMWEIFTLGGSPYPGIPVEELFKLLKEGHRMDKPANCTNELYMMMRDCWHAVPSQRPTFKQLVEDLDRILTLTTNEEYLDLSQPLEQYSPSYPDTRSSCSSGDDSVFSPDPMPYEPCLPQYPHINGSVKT
# ASSAY NAME: IC50 evaluation assay of FGFR2 kinase inhibition (Caliper)
# Type: biochemical
# STUDY CONDITIONS: 28° C.; average of two tests; read-out: IC50 (nM) inhibiting FGFR 2 kinase
VALUE TYPE: IC50 (nM)
Quick note: give the figure in nM, leave out the unit.

[
  {
    "CPD SMILES": "COc1cc(F)ccc1-c1c(C)sc2cnc(Nc3cnn(C4CCN(CCO)CC4)c3)nc12",
    "UNITS": "nM",
    "NUMBER": 8.9
  }
]

// IC50 value for COc1cc(F)ccc1-c1c(C)sc2cnc(Nc3cnn(C4CCNCC4)c3)nc12 : 10

====

# MEASUREMENT TARGET: HCK kinase (Homo sapiens, UniProt P08631)
# Construct: purchased BPS 40440
# Sequence (P08631 whole entry): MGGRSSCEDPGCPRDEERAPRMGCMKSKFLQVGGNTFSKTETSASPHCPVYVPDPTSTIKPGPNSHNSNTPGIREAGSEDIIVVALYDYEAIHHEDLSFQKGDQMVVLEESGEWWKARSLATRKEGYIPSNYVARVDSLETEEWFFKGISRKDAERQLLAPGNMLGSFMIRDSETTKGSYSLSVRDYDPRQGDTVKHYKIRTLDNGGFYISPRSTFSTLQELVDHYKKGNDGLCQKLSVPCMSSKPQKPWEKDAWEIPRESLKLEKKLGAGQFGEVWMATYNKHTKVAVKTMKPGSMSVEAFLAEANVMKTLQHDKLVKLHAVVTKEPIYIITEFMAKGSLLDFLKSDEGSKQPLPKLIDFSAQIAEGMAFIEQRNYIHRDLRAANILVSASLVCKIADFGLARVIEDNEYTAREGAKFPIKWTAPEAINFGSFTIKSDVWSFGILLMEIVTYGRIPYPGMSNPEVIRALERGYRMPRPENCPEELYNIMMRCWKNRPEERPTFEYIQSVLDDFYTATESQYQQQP
# ASSAY NAME: IC50 evaluation assay of Src family kinase inhibition: HCK
# Type: biochemical
# STUDY CONDITIONS: 28° C.; average of two tests; read-out: IC50 (nM) inhibiting Src family kinase HCK
VALUE TYPE: IC50 (nM)
Give the number; nM is assumed, so skip it.

[
  {
    "COMPOUND": "COc1cc(F)ccc1-c1c(C)sc2cnc(Nc3cnn(C4CCN(CCO)CC4)c3)nc12 [Compound 34]",
    "UNITS": "nM",
    "NUMBER": 27
  }
]

The compound identified as COc1cc(F)ccc1-c1c(C)sc2cnc(Nc3cnn(C4CCNCC4)c3)nc12 [Compound 31] registered its IC50 at 30

====

# MEASUREMENT TARGET: c-Src kinase (Homo sapiens, UniProt P12931)
# Construct: purchased Carna 08-173
# Sequence (P12931 whole entry): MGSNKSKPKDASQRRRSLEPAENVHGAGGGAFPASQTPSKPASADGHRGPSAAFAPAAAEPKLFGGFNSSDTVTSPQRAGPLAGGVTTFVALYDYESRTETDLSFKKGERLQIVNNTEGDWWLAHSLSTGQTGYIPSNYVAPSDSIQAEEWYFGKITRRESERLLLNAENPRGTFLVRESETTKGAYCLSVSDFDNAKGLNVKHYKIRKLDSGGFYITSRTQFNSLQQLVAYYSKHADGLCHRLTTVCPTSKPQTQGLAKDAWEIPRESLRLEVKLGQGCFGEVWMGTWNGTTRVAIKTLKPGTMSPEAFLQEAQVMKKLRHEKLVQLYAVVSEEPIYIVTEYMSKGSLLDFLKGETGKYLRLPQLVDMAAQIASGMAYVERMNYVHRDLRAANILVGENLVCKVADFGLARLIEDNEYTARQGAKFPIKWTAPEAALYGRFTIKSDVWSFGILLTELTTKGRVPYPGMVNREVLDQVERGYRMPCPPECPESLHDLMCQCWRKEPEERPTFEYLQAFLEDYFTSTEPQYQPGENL
# ASSAY NAME: IC50 evaluation assay of Src family kinase inhibition: c-Src
# Format: biochemical
# STUDY CONDITIONS: 28° C.; average of two tests; read-out: IC50 (nM) inhibiting Src family kinase c-Src
VALUE TYPE: IC50 (nM)
API: value field is a number in nM; no unit string.

[
  {
    "COMPOUND": "COc1cc(F)ccc1-c1c(C)sc2cnc(Nc3cnn(C4CCNCC4)c3)nc12 [Compound 31]",
    "NUMBER": 6
  }
]

Now, please, on to the next compound.
Per the records, this compound ( COc1cc(F)ccc1-c1c(C)sc2cnc(Nc3cnn(C4CCN(CCO)CC4)c3)nc12 [Compound 34] ) has IC50 equal to 6.3

====

# MEASUREMENT TARGET: JAK1 kinase (Homo sapiens)
# Construct: purchased Carna 08-144
# ASSAY NAME: IC50 evaluation assay on JAK1 kinase inhibition (Caliper)
# Assay type: biochemical
# STUDY CONDITIONS: adenosine triphosphate at Km; 1 hour at 28° C.; average of two tests; read-out: IC50 (nM) inhibiting JAK 1 kinase
Could you please mark true (1) for values of IC50 below 50 nM and false (0) for values at or above it?

Use the examples below as a reference point.
[
  {
    "COMPOUND": "COc1cc(S(C)(=O)=O)ccc1-c1c(C)sc2cnc(Nc3cnn(C)c3)nc12 [Compound 4]",
    "CAT": "true (1)"
  },
  {
    "COMPOUND": "Cc1sc2cnc(Nc3cnn(C4CCNCC4)c3)nc2c1-c1cccc2c1OCC2 [Compound 32]",
    "CAT": "true (1)"
  },
  {
    "COMPOUND": "COc1cc(S(C)(=O)=O)ccc1-c1cccc2cnc(Nc3cnn(C4CCNCC4)c3)nc12 [Compound 49]",
    "CAT": "false (0)"
  },
  {
    "COMPOUND": "COc1cc(OCCCN2CCOCC2)ccc1-c1c(C)sc2cnc(Nc3cnn(C)c3)nc12 [Compound 17]",
    "CAT": "true (1)"
  }
]

Input line: I'd appreciate it if you could check whether COc1cc(S(C)(=O)=O)ccc1-c1c(C)sc2cnc(Nc3cnn(C4CCNCC4)c3)nc12 [Compound 48] has IC50 smaller than 50 nM.
Output line: true (1)

Input line: Does the reported IC50 of Cc1sc2cnc(Nc3cnn(C)c3)nc2c1-c1ccccc1OC(F)F [Compound 10] stay below 50 nM?
Output line: true (1)

Input line: Threshold test, IC50 < 50 nM: Cc1sc2cnc(Nc3cnn(C)c3)nc2c1-c1ccccc1OC(C)C [Compound 29]
Output line: true (1)

Input line: IC50 under 50 nM? Item: COc1ccncc1-c1c(C)sc2cnc(Nc3cnn(C)c3)nc12 [Compound 42]
Output line: true (1)

Input line: IC50 strictly < 50 nM for this compound? c1cc2c(c(-c3cccc4cnc(Nc5cnn(C6CCNCC6)c5)nc34)c1)OCC2 [Compound 44]
Output line: false (0)

====

# MEASUREMENT TARGET: YES kinase (Homo sapiens, UniProt P07947)
# Construct: purchased Carna 08-175
# ASSAY NAME: IC50 evaluation assay of Src family kinase inhibition: YES
# Assay type: biochemical
# STUDY CONDITIONS: 28° C.; average of two tests; read-out: IC50 (nM) inhibiting Src family kinase YES
VALUE TYPE: IC50 (nM)
Give the value in nM but do not write nM after it.

[
  {
    "CPD SMILES": "COc1cc(F)ccc1-c1c(C)sc2cnc(Nc3cnn(C4CCN(CCO)CC4)c3)nc12",
    "UNITS": "nM",
    "NUMBER": 6.8
  }
]

API: the following record is the query input.
The reported IC50 value, YES kinase (Homo sapiens, UniProt P07947), for COc1cc(F)ccc1-c1c(C)sc2cnc(Nc3cnn(C4CCNCC4)c3)nc12 reads 5.8

====

# MEASUREMENT TARGET: LYNα kinase (Homo sapiens)
# Construct: purchased Carna 08-171
# Sequence (P07948 whole entry): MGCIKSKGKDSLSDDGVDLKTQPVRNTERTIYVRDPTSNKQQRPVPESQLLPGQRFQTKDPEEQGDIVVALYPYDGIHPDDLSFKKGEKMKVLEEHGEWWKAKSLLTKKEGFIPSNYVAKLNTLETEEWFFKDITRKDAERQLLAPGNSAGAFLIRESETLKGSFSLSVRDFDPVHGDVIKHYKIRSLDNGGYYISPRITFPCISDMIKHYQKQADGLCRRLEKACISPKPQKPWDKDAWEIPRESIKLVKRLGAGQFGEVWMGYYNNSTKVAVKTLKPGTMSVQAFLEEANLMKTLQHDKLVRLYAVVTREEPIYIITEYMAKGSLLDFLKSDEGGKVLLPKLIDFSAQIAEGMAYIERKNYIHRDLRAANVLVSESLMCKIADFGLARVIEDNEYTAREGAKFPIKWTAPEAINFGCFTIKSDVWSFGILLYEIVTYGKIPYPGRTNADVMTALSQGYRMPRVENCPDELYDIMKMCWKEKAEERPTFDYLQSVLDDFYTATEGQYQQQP
# ASSAY NAME: IC50 evaluation assay of Src family kinase inhibition: LYNα
# Assay type: biochemical
# STUDY CONDITIONS: 28° C.; average of two tests; read-out: IC50 (nM) inhibiting Src family kinase LYNα
VALUE TYPE: IC50 (nM)
Report the figure in nM without appending any unit label.

Value (IC50, LYNα kinase (Homo sapiens)) for record COc1cc(F)ccc1-c1c(C)sc2cnc(Nc3cnn(C4CCNCC4)c3)nc12 = 1.3

====

# MEASUREMENT TARGET: JAK1 kinase (Homo sapiens, UniProt P23458)
# Construct: purchased Carna 08-144
# Sequence (P23458 whole entry): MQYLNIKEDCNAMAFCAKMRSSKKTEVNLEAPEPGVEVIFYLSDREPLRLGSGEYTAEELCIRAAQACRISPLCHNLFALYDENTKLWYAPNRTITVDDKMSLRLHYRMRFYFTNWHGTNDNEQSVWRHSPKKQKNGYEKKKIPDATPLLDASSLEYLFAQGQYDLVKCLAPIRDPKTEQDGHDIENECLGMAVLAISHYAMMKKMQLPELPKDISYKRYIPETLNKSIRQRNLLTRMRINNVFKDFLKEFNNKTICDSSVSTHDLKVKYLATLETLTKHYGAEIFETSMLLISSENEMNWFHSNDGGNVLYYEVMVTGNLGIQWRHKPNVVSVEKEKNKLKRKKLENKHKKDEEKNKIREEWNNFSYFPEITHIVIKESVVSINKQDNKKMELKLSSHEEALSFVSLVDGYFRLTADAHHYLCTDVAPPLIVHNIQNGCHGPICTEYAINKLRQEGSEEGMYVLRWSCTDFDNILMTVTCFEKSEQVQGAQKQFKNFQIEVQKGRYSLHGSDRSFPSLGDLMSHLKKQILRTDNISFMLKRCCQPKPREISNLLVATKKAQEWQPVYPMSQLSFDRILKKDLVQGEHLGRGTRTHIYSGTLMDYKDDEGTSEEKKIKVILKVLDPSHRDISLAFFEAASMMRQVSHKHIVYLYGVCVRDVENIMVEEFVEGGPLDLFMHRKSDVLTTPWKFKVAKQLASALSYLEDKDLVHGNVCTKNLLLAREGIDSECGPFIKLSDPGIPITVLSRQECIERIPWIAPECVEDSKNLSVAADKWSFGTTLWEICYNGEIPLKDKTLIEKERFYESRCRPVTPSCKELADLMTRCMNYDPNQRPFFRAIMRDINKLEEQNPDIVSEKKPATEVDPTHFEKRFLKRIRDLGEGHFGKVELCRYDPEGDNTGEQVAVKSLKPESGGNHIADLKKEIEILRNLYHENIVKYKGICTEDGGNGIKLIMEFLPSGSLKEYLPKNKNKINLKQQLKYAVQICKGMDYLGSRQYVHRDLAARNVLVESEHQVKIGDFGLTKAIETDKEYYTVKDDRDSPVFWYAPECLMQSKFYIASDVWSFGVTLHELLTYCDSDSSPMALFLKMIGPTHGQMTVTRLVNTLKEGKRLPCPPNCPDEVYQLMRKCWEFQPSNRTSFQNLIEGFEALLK
# ASSAY NAME: IC50 evaluation assay on JAK1 kinase inhibition (Caliper)
# Assay type: biochemical
# STUDY CONDITIONS: adenosine triphosphate at Km; 1 hour at 28° C.; average of two tests; read-out: IC50 (nM) inhibiting JAK 1 kinase
# Lookup of reported IC50 keyed by entry
Could you give the number and then its unit, please?

[
  {
    "CPD SMILES": "COc1ccccc1-c1c(C)sc2cnc(Nc3cnn(CCCN4CCCC4)c3)nc12",
    "VALUE TYPE": "IC50",
    "RESULT": "12 nM"
  }
]

Looking up COc1ccccc1-c1cccc2cnc(Nc3cnn(C4CCNCC4)c3)nc12 , I found its IC50 recorded as 2.4 nM

Lookup result for COc1ccccc1-c1c(C)sc2cnc(Nc3cnn(C)c3)nc12 ; measured IC50: 6.8 nM

Summary for this compound, COc1ccccc1-c1c(C)sc2cnc(Nc3cnn(CCN4CCN(C)CC4)c3)nc12 : IC50 is 43 nM

Reported IC50 of COc1cc(OCCCN2CCCC2)ccc1-c1c(C)sc2cnc(Nc3cnn(C)c3)nc12 : 20 nM
